biological target: Ubiquitin carboxyl-terminal hydrolase 28 (Homo sapiens); test: Biochemical Assay
Sequence (Q96RU2 whole entry): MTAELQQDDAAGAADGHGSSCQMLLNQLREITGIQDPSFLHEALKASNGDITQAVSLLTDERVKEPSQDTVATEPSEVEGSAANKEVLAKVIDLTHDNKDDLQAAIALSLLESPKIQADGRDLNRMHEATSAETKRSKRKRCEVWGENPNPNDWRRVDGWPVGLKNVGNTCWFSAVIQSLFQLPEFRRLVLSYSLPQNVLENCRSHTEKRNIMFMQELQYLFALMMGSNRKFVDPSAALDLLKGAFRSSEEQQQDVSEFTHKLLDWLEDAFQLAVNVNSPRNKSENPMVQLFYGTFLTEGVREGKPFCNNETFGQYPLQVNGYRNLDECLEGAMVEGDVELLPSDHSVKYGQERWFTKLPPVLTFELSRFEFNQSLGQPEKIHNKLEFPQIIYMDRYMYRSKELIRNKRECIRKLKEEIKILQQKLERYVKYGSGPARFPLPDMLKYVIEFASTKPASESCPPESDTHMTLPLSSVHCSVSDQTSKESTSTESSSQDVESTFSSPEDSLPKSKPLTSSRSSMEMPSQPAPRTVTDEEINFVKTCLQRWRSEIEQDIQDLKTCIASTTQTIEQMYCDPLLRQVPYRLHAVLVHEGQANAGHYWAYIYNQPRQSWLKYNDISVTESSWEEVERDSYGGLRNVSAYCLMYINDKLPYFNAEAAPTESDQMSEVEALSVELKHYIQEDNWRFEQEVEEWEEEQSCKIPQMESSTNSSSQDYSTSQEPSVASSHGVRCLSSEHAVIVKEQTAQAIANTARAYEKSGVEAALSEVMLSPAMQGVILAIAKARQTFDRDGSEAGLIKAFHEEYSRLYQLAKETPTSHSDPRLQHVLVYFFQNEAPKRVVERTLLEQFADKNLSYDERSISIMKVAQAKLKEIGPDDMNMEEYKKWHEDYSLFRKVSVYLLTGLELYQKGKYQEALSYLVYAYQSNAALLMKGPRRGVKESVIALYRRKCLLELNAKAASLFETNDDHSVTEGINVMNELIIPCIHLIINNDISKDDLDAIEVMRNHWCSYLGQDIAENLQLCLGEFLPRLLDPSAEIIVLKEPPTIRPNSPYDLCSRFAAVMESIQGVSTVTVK
endpoint name: IC50

Find the recorded IC50 belonging to Nc1c(C(=O)NCCc2ccc([C@H]3CCNC3)cc2)sc2ncccc12 and report it.
< 200 nM
